Assay: Hemolytic activity in mouse erythrocytes assessed as hemolysis level at 7.8 ug/ml incubated for 1 hr at 37 degC
Type: ADME, cell-based, Erythrocyte
Details: read-out: Activity
Property: hemolysis at 1 h, 7.8 ug/ml (%)
Answers are plain numbers, in %.

Answer for every listed entry: what is its hemolysis at 1 h, 7.8 ug/ml? The entries follow.
1. CCCCCCCCC(O)(Cn1cncn1)c1ccc(F)cc1F (stereo not given)
2. CCCCCC(O)(Cn1cncn1)c1ccc(F)cc1F (stereo not given)
3. CCCCCCC(O)(Cn1cncn1)c1ccc(F)cc1F (stereo not given)

Result:
1: 46.8; 2: 0; 3: 0

// for each molecule below, give its hemolysis at 1 h, 7.8 ug/ml
1. CCCCCC(O)(Cn1cncn1)c1ccc(Cl)cc1Cl (stereo not given)
2. CCCCCC(O)(Cn1cncn1)c1ccccc1F (stereo not given)

Result:
[0, 0]
